Entries and their growth
System: NCI-H460 lung
test.method.notes: NCI-60 one-dose screen, 48 h (100 = growth as untreated, 0 = no growth, -100 = all killed)
protocol.conditions: 10 µM unless noted
The panel holds about 83,000 compounds, 20% with a hit somewhere; the sample as a whole holds those more often.

molecule	growth (%)
O=c1[nH]c(=O)n(C2CC(O)C(CO)O2)cc1CO (stereo not given)	65.9
COc1ccc(-c2nc3ccccn3c2/C=C/C(=O)c2cc(OC)c(OC)c(OC)c2)cc1	34.4
COc1cc2c(O)n(CCCn3ccnc3)c3c4cnc5cccc(c(=O)c3c2cc1OC)c54	6.78
O=C1/C(=C/c2ccccc2[N+](=O)[O-])COc2ccc(O)c(O)c21	0.563
CCCc1nc2ccccn2c1Nc1ccc(C(=O)NO)cc1	85.9
